outcome.measure: melting point

CC(C)c1cn(C(C)(C)C(=O)N(C)C)nc1-c1ccccc1Cl    86 to 88 °C

Enquiry: I have this compound here, CN1C(=O)Nc2cc(Cl)c(Cl)cc2C1(O)C(=O)NC(N)=S (stereo not drawn) , and I need its recorded melting point.
Return: 225 to 228 °C

Enquiry: I have this compound here, O=C1Nc2cc3c(cc2OC1CCCN1CCN(c2ccc(F)cc2)CC1)CCCC3 (stereo not drawn) , and I need its recorded melting point.
Return: 156 to 157 °C

Enquiry: I have this compound here, COc1ccc(CN(CCN(C)CCCN=C(NC#N)NCCSCc2csc(NC(=N)N)n2)c2ccccn2)cc1 , and I need its recorded melting point.
Return: 54 °C

Enquiry: I have this compound here, CCCC(=CC(N)C(=O)O)CP(=O)(O)O (stereo not drawn) , and I need its recorded melting point.
Return: 193 °C

Enquiry: I have this compound here, COc1cc2c(=O)c(S(C)=O)cn(C)c2cc1F (stereo not drawn) , and I need its recorded melting point.
Return: 263 to 264 °C

Enquiry: I have this compound here, CN(C)c1ccc(C(=O)Cc2cccc(Cl)c2)cc1 , and I need its recorded melting point.
Return: 126 to 128 °C

Enquiry: I have this compound here, O=C(N[C@@H]1CCC[C@H]1O)C(O)=CC(=O)c1cc(Cc2ccc(F)cc2F)cn(Cc2ccccc2F)c1=O , and I need its recorded melting point.
Return: 55 to 57 °C

Enquiry: I have this compound here, C=CCN(CC=C)C(=O)n1cnc(S(=O)(=O)CCOCC)n1 , and I need its recorded melting point.
Return: 62 to 63 °C

Enquiry: I have this compound here, Oc1ccc(CN2CCOCC2)c2cccnc12 , and I need its recorded melting point.
Return: 130 °C

Enquiry: I have this compound here, O=C(NC1CCCCC1)NS(=O)(=O)c1ccc(CCNC(=O)N2Cc3ccccc3C2=O)cc1 , and I need its recorded melting point.
Return: 211 to 213 °C

Enquiry: I have this compound here, CCOC(=O)c1c(Cl)nn(C)c1S(=O)(=O)NC(=O)Nc1nc(OC)cc(OC)n1 , and I need its recorded melting point.
Return: 169 to 170 °C

Enquiry: I have this compound here, N#Cc1c(N2CCCC2)cccc1[N+](=O)[O-] , and I need its recorded melting point.
Return: 111 to 113 °C

* * *

Listing: melting point of selected compounds

Consider the following illustrative entries.
CCCCCCCCCCCC(=O)NC1C(C)C(c2ccccc2)NC(c2ccccc2)C1C (centres undefined)    112 to 114 °C
O=C(Nc1cc(-c2c(-c3ccc(Cl)cc3)nc3cccnn23)ccn1)c1ccccc1    218 to 219 °C
O=C1c2ccccc2C(=O)N1c1ccc(S(=O)(=O)NCCC2(C(=O)NCC(F)(F)F)c3ccccc3-c3ccccc32)cc1    235 to 237 °C
COc1ccc(C(=O)O)c2c1OC(C)(C)C2    147 to 149 °C
CN(C)C(=O)Sc1ccc(CC#N)cc1    97 to 99 °C
N#Cc1ccc(-c2cccc(C=O)c2)cc1    122 to 123 °C
Cc1ccc(S(=O)(=O)OCC2Cc3cccc(-c4ccccc4C)c3O2)cc1 (centres undefined)    98 to 100 °C
O=S1(=O)N=CN(C2CCC2)c2cc(Cl)c(Cl)cc21    238 to 240 °C

Enquiry: I have this compound here, CN(Cc1ccc(F)cc1)C(=O)c1cnc2c([N+](=O)[O-])cccc2c1Cl , and I need its recorded melting point.
Return: 135 to 137 °C

* * *

Listing: melting point of selected compounds

Consider the following illustrative entries.
COC(=O)Cc1ccc(OCc2ccc(OCc3nc(-c4ccccc4)oc3C)cc2)cc1    93 to 94 °C
O=C1OC2(CCN(C(=O)Nc3cnc(-c4ccccc4)cn3)CC2)c2ccc(F)cc21    236 to 238 °C
Cc1nc(C)c2c(n1)CN=C(c1ccccc1)c1cc(Cl)ccc1-2    121 to 124 °C

Please examine the following record next.
Enquiry: I have this compound here, Nc1cccc2c1CCN(C(=O)C(F)(F)F)CC2 , and I need its recorded melting point.
Return: 85 to 88 °C

* * *

Listing: melting point of selected compounds

Consider the following illustrative entries.
CCc1cccc(C)c1S(=O)(=O)c1nc[nH]n1    180 to 181 °C
CC1(C)C(Br)C(=O)C1CC(Cl)(Cl)Cl (stereo not given)    56 °C
CCN(CC)CCNC(=O)c1ccc(-c2n[nH]c3c2Cc2ccccc2-3)cc1    172 to 174 °C
Cc1cccc(C)c1NC(=O)CCCCCc1cccnc1    98 to 100 °C
Nc1ccc(F)cc1C(=O)c1ccccc1    112 to 113 °C

Enquiry: I have this compound here, CC(C)(C)OC(=O)N1CCC(C=C(Br)Br)CC1 , and I need its recorded melting point.
Return: 82.3 to 83.9 °C

Enquiry: I have this compound here, NC(=O)c1cnn2c1NCC=C2c1cccnc1 , and I need its recorded melting point.
Return: 182 to 184 °C

Enquiry: I have this compound here, Cc1ccsc1C(Cc1cc(Br)ccc1N)N(C)C (stereo not given) , and I need its recorded melting point.
Return: 96 to 98 °C

Enquiry: I have this compound here, Cc1cc2c(cc1Cl)CCN2C(=O)Nc1cccnc1 , and I need its recorded melting point.
Return: 217 to 218 °C

Enquiry: I have this compound here, O=C(O)c1ccccc1Nc1cccc(Br)c1 , and I need its recorded melting point.
Return: 169 to 171 °C

* * *

outcome.measure: melting point

Consider the following illustrative entries.
COc1ccc(C)cc1NC(=O)Nc1ccc(N2CCN(C(=O)Nc3ccc(CO)cc3C)CC2)cc1    138 to 141 °C
CCCC1=NN(c2ccc([N+](=O)[O-])cc2)C(=O)C1=CNc1ccccc1CC    211 °C
Brc1cn2c(Br)cnc2c(N2CCCCC2)n1    72 °C

Enquiry: I have this molecule here, O=C1Nc2ccccc2NC2CCCC12 (configuration not stated) , and I need its recorded melting point.
Return: 191 to 212 °C

Enquiry: I have this molecule here, O=C(NCCN1CCC2(CC1)C(=O)NCN2c1ccccc1)c1ccco1 , and I need its recorded melting point.
Return: 196 °C

Enquiry: I have this molecule here, Cc1ccc(-c2[nH]c(C3CCCCC3)nc2C(=O)Nc2nccs2)cc1 , and I need its recorded melting point.
Return: 199 to 200 °C

Enquiry: I have this molecule here, CC(C)c1cc(C(C)C)c(CC(=O)NS(=O)(=O)Oc2c(C(C)C)cc(O)cc2C(C)C)c(C(C)C)c1 , and I need its recorded melting point.
Return: 182 to 183 °C

Enquiry: I have this molecule here, CCCCS(=O)(=O)Oc1ccc(CCOc2ccc(/C=C(\OCC)C(=O)O)cc2OC)cc1 , and I need its recorded melting point.
Return: 94 °C

* * *

Listing: melting point of selected compounds

Enquiry: I have this compound here, CCCc1cc2c(=O)n3cc(C(N)=O)ccc3nc2s1 , and I need its recorded melting point.
Return: 260 to 264 °C

Enquiry: I have this compound here, NNc1cc2c(nn1)CCN(C(=O)c1ccc(Br)cc1)C2 , and I need its recorded melting point.
Return: 192 to 195 °C

Enquiry: I have this compound here, COc1nc(Cl)nc2c1ncn2C1CC(O)C(CO)O1 (configuration not stated) , and I need its recorded melting point.
Return: 141 to 142 °C

Enquiry: I have this compound here, COCCn1cc2c(C3C(=O)Nc4ccc(Br)cc43)nc(NCCC3CCNCC3)nc2n1 (configuration not stated) , and I need its recorded melting point.
Return: 248 to 251 °C

* * *

outcome.measure: melting point

Consider the following illustrative entries.
Fc1nc(NCc2cccnc2)c2nc[nH]c2n1    218 to 220 °C
C#C[C@]1(C)CCc2c(C)c(O)c(C)c(C)c2O1    81 to 83 °C
CCOC(=O)COc1c(C)cc(C(OC)(C(F)(F)F)C(F)(F)F)cc1C    97 to 98 °C
CC1(C)Oc2cc3nc(SCc4ccccn4)[nH]c3cc2O1    210 to 211 °C
CS(=O)(=O)c1ccc(-c2cnn(-c3cc(Cl)cc(Cl)c3)c(=O)c2-c2ccc(F)cc2)cc1    289 to 294 °C

Please examine the following record next.
Enquiry: I have this compound here, Cc1c(CCN(C)C(=O)OC(C)(C)C)c2cc(S(=O)(=O)c3ccccc3)ccc2n1C , and I need its recorded melting point.
Return: 147 to 149 °C

* * *

outcome.measure: melting point

Consider the following illustrative entries.
COc1ccc(-c2c3c(cc4ccc(OC)c(OC)c24)C(=O)NC3=O)cc1    288 to 290 °C
CC(Cl)(Cl)C(NC(=O)c1cccc(Cl)c1)NC(=NC#N)Nc1ccc(F)nc1 (centres undefined)    124 to 125 °C
CC[C@H](C)C(OCc1ccccc1F)[C@H]1[C@H]([N+](=O)[O-])[C@H](c2ccccc2)N[C@@H]1C(=O)NCCC(=O)O (some centres undefined)    136 to 138 °C
Cc1ccc(C2=CCN(CCCc3nnc4n3CCCCC4)CC2)cc1    93 to 96 °C
CCOC(=O)COCC(=O)c1ccccc1    33 to 35 °C
OCCCc1ccc(OCc2ccccc2)cc1    63 to 64 °C
COC(=O)[C@@H]1C[C@H](OC(=O)c2cccnc2)C(=O)[C@H]2[C@@]1(C)CC[C@H]1C(=O)O[C@H](c3ccoc3)C[C@]21C    200 to 204 °C
C=CCc1c(-c2cc(=O)c3c(O)cc(OCC(=O)OCC)cc3o2)ccc(OC)c1O    155 °C

Enquiry: I have this compound here, Cc1ccc(N2CCN(c3c(C)c(C)c4c(c3C)CC(C)(CO)O4)CC2)cc1 (centres undefined) , and I need its recorded melting point.
Return: 152 to 155 °C

Enquiry: I have this compound here, COC(OC)c1c(SC(F)(F)F)c(C#N)nn1-c1c(Cl)cc(C(F)(F)F)cc1Cl , and I need its recorded melting point.
Return: 93 °C

Enquiry: I have this compound here, CS(=O)(=O)NCCCCCCCCCCCCn1c2c(c3ccccc3c1=O)C(=O)c1ccccc1-2 , and I need its recorded melting point.
Return: 113 to 117 °C

Enquiry: I have this compound here, C=CCCCN(C(=O)OC(C)(C)C)c1cc(OCc2ccccc2)c2ccccc2c1I , and I need its recorded melting point.
Return: 69 to 71 °C

Enquiry: I have this compound here, CCCC1=C(C#N)C(c2ccccc2Cl)c2c(n[nH]c2-c2cccs2)N1 (centres undefined) , and I need its recorded melting point.
Return: 256 °C
